- condition-label: 20.0 µM
Items are presented alongside their recorded relative solubility at 20 uM.
Lab note: record just the number, no unit beside it.

>>> reported("Cc1ncncc1NC(=O)C(c1cccc(Cl)c1)C(C)C (stereo unspecified)")
1
>>> reported("O=C(Nc1ccccc1)Nc1cnc2ccc([N+](=O)[O-])cc2n1")
0.86
>>> reported("N#Cc1ccc(O)c(NC(=O)Cc2cccnc2)c1")
1
>>> reported("Cc1ccncc1NC(=O)Cc1cccc(I)c1")
1

Documented relative solubility at 20 uM of O=C(Cc1cc(Cl)c2c(c1)OCCO2)Nc1cnccc1-c1ccccc1 : 0.88

relative solubility at 20 uM recorded for this molecule, CCC(=O)Nc1cccc(OC2CC(=O)N2)c1 (stereo unspecified) , is 1.01

Recorded result, Cc1ccncc1NC(=O)Cc1cccc(Cl)c1 , relative solubility at 20 uM: 1

Please fill in: relative solubility at 20 uM reported for C=CC(=O)N(c1ccc(C(C)(C)C)cc1)C(C(=O)NC(C)(C)C)c1cncc(OC)c1 (stereo unspecified) = 1

What the record says about N#Cc1ccc(S(=O)(=O)N2CCN(C(=O)c3cc(=O)[nH]c4ccc(F)cc34)CC2)cc1 : relative solubility at 20 uM is 0.98

Recorded result, NC(=O)C1Cc2ccccc2N(CC(=O)Nc2cnccn2)C1 (stereo unspecified) , relative solubility at 20 uM: 1

response.value for C#CCOc1ccc(N(C(=O)C=C)C(C(=O)NC(C)(C)C)c2cccnc2)cc1 (stereo unspecified) (field: relative solubility at 20 uM) = 1

Data provenance is the COVID Moonshot data (paper PMC11187573).
